- Tested on: Calu-3
- measurement notes: cell viability relative to DMSO; higher = less toxic
- study conditions: 72 h; 1 nM
Let's look at some molecules and their measured cell viability.
value kind: cell viability (%)

{"molecule": "CC(C)(C)NCC(O)COc1cc(Cl)ccc1Cl (stereo not given)", "result value": 95}
{"molecule": "CC(=O)O[C@H]1Cc2ccccc2N(C(N)=O)c2ccccc21 [eslicarbazepine-acetate]", "result value": 98.9}
{"molecule": "CNC(=O)c1cc2c(cn1)[nH]c1ccccc12", "result value": 96.9}
{"molecule": "Cc1cccc(C)c1NC(=O)CN1CCCCCC1 [pincainide]", "result value": 95.1}
{"molecule": "CCCCCCOc1ccccc1C(N)=O [exalamide]", "result value": 106}
{"molecule": "O=c1c(O)c(-c2ccc(O)c(O)c2)oc2cc(O)ccc12", "result value": 93.2}
{"molecule": "FC(F)(F)c1ccc(CNc2ccc(Cc3c[nH]c4ncc(Cl)cc34)cn2)cn1", "result value": 108}
{"molecule": "CCCCOC(=O)c1ccccc1Nc1cccc(C(F)(F)F)c1 [ufenamate]", "result value": 105}
{"molecule": "CCCC(CCC)C(=O)Nc1ccn([C@@H]2O[C@H](CO)[C@@H](O)C2(F)F)c(=O)n1", "result value": 98.3}
{"molecule": "CC(C)NCC(O)c1ccc([N+](=O)[O-])cc1 (stereo not given)", "result value": 101}

----------
- Tested on: Vero E6
- measurement notes: cell viability relative to DMSO; higher = less toxic
- study conditions: 72 h; 1000 nM
Let's look at some molecules and their measured cell viability.

{"molecule": "CCOC(=O)C1=C(C)NC(C)=C(C(=O)OC)[C@@H]1c1cccc([N+](=O)[O-])c1 (racemic) [nitrendipine]", "cell viability / %": 105}
{"molecule": "CCN(C(C)=O)c1cccc(-c2ccnc3c(C#N)cnn23)c1 [ZALEPLON]", "cell viability / %": 101}
{"molecule": "N#Cc1ncccn1 [2-cyanopyrimidine]", "cell viability / %": 106}
{"molecule": "O=C(O)CCCN1C(=O)c2cccc3cccc(c23)C1=O [isodibut]", "cell viability / %": 101}
{"molecule": "Cc1c(C2CCN(CCc3ccccc3)CC2)noc1-c1ccc(Cl)cc1", "cell viability / %": 98.3}
{"molecule": "Nc1cc(C(Cl)=C(Cl)Cl)c(S(N)(=O)=O)cc1S(N)(=O)=O [clorsulon]", "cell viability / %": 102}
{"molecule": "CC(C)Nc1cc(-c2c[nH]c(C(=O)N[C@H](CO)c3cccc(Cl)c3)c2)c(Cl)cn1 [BVD-523]", "cell viability / %": 80.7}
{"molecule": "Cc1ccc(S(=O)(=O)Cc2nc(-c3ccc(C(=O)NCc4cccnc4)cc3)oc2C)cc1", "cell viability / %": 1.5}
{"molecule": "CCCCCCCCCCCCCC(=O)OC(C)C [isopropyl-myristate]", "cell viability / %": 96.8}
{"molecule": "COc1ccc(S(=O)(=O)Nc2c(C)cc(C)cc2C)cc1", "cell viability / %": 101}

----------
- Tested on: U2OS
- measurement notes: cell viability relative to DMSO; higher = less toxic
- study conditions: 72 h; 10000 nM
Where a name gives a salt, the structure may show the parent alone.
Let's look at some compounds and their measured cell viability.

{"compound": "CC1=C(/C=C/C(C)=C/C=C/C(C)=C/C(=O)Nc2ccc(O)cc2)C(C)(C)CCC1 [fenretinide]", "unit info": "%", "cell viability": 86.8}
{"compound": "c1ccc([C@@H]2C[C@H]2NC2CCNCC2)cc1", "unit info": "%", "cell viability": 104}
{"compound": "Cc1c(-c2ccccc2)oc2c(C(=O)OCCN3CCCCC3)cccc2c1=O [flavoxate]", "unit info": "%", "cell viability": 98.8}
{"compound": "CC(C)(C)Cn1c(N)nc2ccc(-c3[nH]c(C(C)(C)C)nc3-c3ccc(F)cc3)nc21", "unit info": "%", "cell viability": 77.4}
{"compound": "COc1[nH]c2ccc(F)cc2c1C(=O)OCC1CCN(CCNS(C)(=O)=O)CC1", "unit info": "%", "cell viability": 98.9}
{"compound": "CC1(C)CCC(C)(C)c2cc(Cn3cccn3)c(/C=C/c3ccc(C(=O)O)cc3)cc21", "unit info": "%", "cell viability": 94.8}
{"compound": "Oc1cc(O)cc(/C=C/c2ccc(O)c(O)c2)c1", "unit info": "%", "cell viability": 96.1}
{"compound": "CC1C(=O)OC2C(O)C34C5CC(C(C)(C)C)C36C(OC(=O)C6O)OC4(C(=O)O5)C12O (configuration not stated) [ginkgolide-B]", "unit info": "%", "cell viability": 104}
{"compound": "CCOC(=O)[C@H](CCc1ccccc1)N[C@@H](C)C(=O)N(CC(=O)O)C1Cc2ccccc2C1", "unit info": "%", "cell viability": 98}
{"compound": "CC(C)(C)c1ccc(S(=O)(=O)Nc2ccc(Cl)cc2C(=O)c2cc[n+]([O-])cc2)cc1", "unit info": "%", "cell viability": 104}
{"compound": "CCS(=O)(=O)N1CC(CC#N)(n2cc(-c3ncnc4[nH]ccc34)cn2)C1", "unit info": "%", "cell viability": 96.4}
{"compound": "CCOC(=O)C1=C(C)NC(C)=C(C(=O)OC)[C@@H]1c1cccc([N+](=O)[O-])c1 (racemic)", "unit info": "%", "cell viability": 95.6}
{"compound": "[N-]=[N+]=CC(=O)CC[C@H](N)C(=O)O", "unit info": "%", "cell viability": 104}
{"compound": "CCN1CCC[C@H]1CNC(=O)c1c(O)c(Cl)cc(Cl)c1OC [raclopride]", "unit info": "%", "cell viability": 99.9}
{"compound": "CCCC(CCC)C(=O)Nc1ccn([C@@H]2O[C@H](CO)[C@@H](O)C2(F)F)c(=O)n1", "unit info": "%", "cell viability": 68.2}
{"compound": "Nc1ncnc2c1ncn2[C@@H]1O[C@H](COP(=O)(O)OP(=O)(O)OP(=O)(O)OP(=O)(O)OC[C@H]2O[C@@H](n3cnc4c(N)ncnc43)[C@H](O)[C@@H]2O)[C@@H](O)[C@H]1O [diadenosine-tetraphosphate]", "unit info": "%", "cell viability": 107}
{"compound": "CC(=O)Oc1ccccc1C(=O)Oc1ccccc1C(=O)O", "unit info": "%", "cell viability": 106}
{"compound": "OCCn1cc(-c2cnc3nnn(Cc4ccc5ncccc5c4)c3n2)cn1", "unit info": "%", "cell viability": 97.1}
{"compound": "CC(C)NCC(O)c1ccc([N+](=O)[O-])cc1 (configuration not stated)", "unit info": "%", "cell viability": 99.7}
{"compound": "Nc1nc(N)nc(NC2CC2)n1", "unit info": "%", "cell viability": 103}
{"compound": "CC(=O)OC[C@H](N)C(=O)O", "unit info": "%", "cell viability": 98.9}
{"compound": "CCSC(=N)N [EIT-hydrobromide]", "unit info": "%", "cell viability": 103}
{"compound": "CCOc1ccccc1C(=O)O", "unit info": "%", "cell viability": 98.7}
{"compound": "CNC(=O)c1cc2c(cn1)[nH]c1ccccc12", "unit info": "%", "cell viability": 96.9}
{"compound": "CC(=O)N[C@H](Cc1ccc2ccccc2c1)C(=O)N[C@H](Cc1ccc(Cl)cc1)C(=O)N[C@H](Cc1cccnc1)C(=O)N[C@@H](CO)C(=O)N[C@@H](Cc1ccc(O)cc1)C(=O)N[C@H](CCCNC(N)=O)C(=O)N[C@@H](CC(C)C)C(=O)N[C@@H](CCCNC(=N)N)C(=O)N1CCC[C@H]1C(=O)N[C@H](C)C(N)=O", "unit info": "%", "cell viability": 100}
{"compound": "CC1C=CC=CCCC=CC=CC=CC=CC(OC2OC(C)C(O)C(N)C2O)CC2OC(O)(CC(O)C(O)CCC(O)CC(O)CC(O)CC(=O)OC(C)C(C)C1O)CC(O)C2C(=O)O (configuration not stated)", "unit info": "%", "cell viability": 104}
{"compound": "C[n+]1ccccc1C=NO", "unit info": "%", "cell viability": 103}
{"compound": "CO[C@H](C(=O)[C@@H](O)[C@@H](C)O)[C@@H]1Cc2cc3cc(O[C@H]4C[C@@H](O[C@H]5C[C@@H](O)[C@H](O)[C@@H](C)O5)[C@@H](O)[C@@H](C)O4)c(C)c(O)c3c(O)c2C(=O)[C@H]1O[C@H]1C[C@@H](O[C@H]2C[C@@H](O[C@H]3C[C@](C)(O)[C@H](O)[C@@H](C)O3)[C@H](O)[C@@H](C)O2)[C@H](O)[C@@H](C)O1", "unit info": "%", "cell viability": 1.5}
{"compound": "C1=Cc2cccc(OCC3CNCCO3)c2C1 (configuration not stated)", "unit info": "%", "cell viability": 96.8}
{"compound": "CO[C@H]1/C=C/O[C@@]2(C)Oc3c(C)c(O)c4c(O)c(c(/C=N/N=C/N5CCCCC5)c(O)c4c3C2=O)NC(=O)/C(C)=C\\C=C\\[C@H](C)[C@H](O)[C@@H](C)[C@@H](O)[C@@H](C)[C@H](OC(C)=O)[C@@H]1C", "unit info": "%", "cell viability": 91.6}
{"compound": "N[C@@H](C(=O)N[C@@H]1C(=O)N2C(C(=O)O)=C(Cl)CC[C@H]12)c1ccccc1", "unit info": "%", "cell viability": 101}
{"compound": "COc1ccc(NS(=O)(=O)c2ccc(I)cc2)cc1N1CCN(C)CC1", "unit info": "%", "cell viability": 98.2}
